# protocol_text: Reducing activity of the stable radical DPPH
# Assay type: biochemical
# condition_description: 200 µM, 20 min
Attribute: RA% 200 µM 20 min

Input CC(Cc1ccc(O)c(O)c1)C(C)Cc1ccc(O)c(O)c1 (stereo not shown) [NDGA, Nordihydroguaretic acid, reference compound] . Output RA% 200 µM 20 min: 94%

Input `CC(=O)n1nc(-c2ccccc2)cc1-c1ccc2[nH]ccc2c1` . Output RA% 200 µM 20 min: 50.1%

====

# system_under_test: soybean lipoxygenase (Glycine max)
# Construct: purchased Sigma Chemical, Co
# protocol_text: Soybean lipoxygenase inhibition study
# Type: biochemical
# condition_description: compound 100 µM, sodium linoleate 0.1 mM; read-out: LOX % Inhibition at 100 µM
# Description: Lipoxygenase (LOX) is the key enzyme implicated in membrane lipid peroxidation by forming hydroperoxides, thus it is considered a target for inflammatory diseases. […] For the in vitro study, soybean lipoxygenase was used, based on the homology to mammalian lipoxygenase. […] A stock solution (1% DMSO in the appropriate buffer with the tested compound diluted under sonication) was prepared for the in vitro assays from which several dilutions were made with the appropriate buffer. […]
measure_name: inhibition at 100 µM (%)
Supply the numeric figure in %, leaving out any unit text.

Field: example entries. Status: answers known.
[
  {
    "compound": "c1ccc(C2=NNC(c3cccc4ccccc34)C2)cc1 (stereo not drawn)",
    "inhibition at 100 µM (%)": 35
  },
  {
    "compound": "Clc1ccc(C2=NNC(c3ccc4[nH]ccc4c3)C2)cc1 (stereo not drawn)",
    "inhibition at 100 µM (%)": 17
  },
  {
    "compound": "CC(=O)n1nc(-c2ccc(Cl)cc2)cc1-c1cccc2ccccc12",
    "inhibition at 100 µM (%)": 60
  }
]

# value of inhibition at 100 µM, soybean lipoxygenase (Glycine max), item `CC(=O)n1nc(-c2ccccc2)cc1-c1cccc(Oc2ccccc2)c1` = 26

# value of inhibition at 100 µM, soybean lipoxygenase (Glycine max), item Brc1ccc(COc2ccc(C3CC(c4ccccc4)=NN3)cc2)cc1 (stereo not drawn) = 13

# value of inhibition at 100 µM, soybean lipoxygenase (Glycine max), item `CC(=O)n1nc(-c2ccccc2)cc1-c1ccc2[nH]ccc2c1` = 3

====

# system_under_test: soybean lipoxygenase (Glycine max, UniProt P08170)
# Sequence (P08170 whole entry): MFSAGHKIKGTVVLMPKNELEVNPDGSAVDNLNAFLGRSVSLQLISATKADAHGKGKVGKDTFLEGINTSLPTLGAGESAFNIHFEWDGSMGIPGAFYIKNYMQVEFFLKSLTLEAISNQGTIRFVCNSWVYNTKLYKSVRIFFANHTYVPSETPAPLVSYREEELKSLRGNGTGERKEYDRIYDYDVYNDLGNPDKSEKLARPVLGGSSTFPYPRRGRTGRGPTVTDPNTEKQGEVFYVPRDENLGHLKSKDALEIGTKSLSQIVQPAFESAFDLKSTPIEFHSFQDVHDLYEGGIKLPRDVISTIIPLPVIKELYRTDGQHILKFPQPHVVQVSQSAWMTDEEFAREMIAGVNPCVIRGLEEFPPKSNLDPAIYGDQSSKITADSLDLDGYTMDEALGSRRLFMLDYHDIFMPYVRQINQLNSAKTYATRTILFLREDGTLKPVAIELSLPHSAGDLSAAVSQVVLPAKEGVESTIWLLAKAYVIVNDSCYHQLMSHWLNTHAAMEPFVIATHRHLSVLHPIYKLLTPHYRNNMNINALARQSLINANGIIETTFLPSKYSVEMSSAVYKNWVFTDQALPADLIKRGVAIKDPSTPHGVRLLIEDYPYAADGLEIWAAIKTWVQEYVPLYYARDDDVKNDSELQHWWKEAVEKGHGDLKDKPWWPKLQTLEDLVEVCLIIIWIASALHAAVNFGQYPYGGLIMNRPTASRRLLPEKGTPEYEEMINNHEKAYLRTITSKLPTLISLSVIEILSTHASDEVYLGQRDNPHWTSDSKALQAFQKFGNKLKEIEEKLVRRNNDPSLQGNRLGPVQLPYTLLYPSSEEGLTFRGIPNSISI
measure_name: pIC50
Here pIC50 is given on a logarithmic scale as minus log10 of the concentration in mol/L.

# value of pIC50, soybean lipoxygenase (Glycine max, UniProt P08170), item CC(=O)n1nc(-c2ccc(Cl)cc2)cc1-c1cccc2ccccc12 [Compound 2g] = 4.10

====

# protocol_text: Experimental determination of lipophilicity as RM values (RP-TLC)
# Format: physicochemical
# Parameters: key: RM = log[(1/Rf) − 1] from RP-TLC Rf values
# condition_description: methanol/water 70/30 v/v, 24 °C, average of at least five measurements
# From the text: Lipophilicity is the key physicochemical parameter of a bioactive molecule, linking solubility, ligand-target binding interactions and membrane permeability with absorption, distribution, bioavailability, metabolism and elimination (ADME) and toxicological effects, crucial for its biological activity. […] Lipophilicity was also theoretically calculated as clog P values, using the CLOGP Program of Biobyte Corp. and as LPSP-lipophilicity values through Spartan v.5.1.3. […]
Decision: RM (±SD) beneath 0.2 gives t; RM (±SD) meeting or exceeding 0.2 gives f.

[
  {
    "compound": "c1ccc(C2=NNC(c3cccc4ccccc34)C2)cc1 (stereo not drawn) [Compound 2a]",
    "category": "f"
  },
  {
    "compound": "CC(=O)n1nc(-c2ccc(Cl)cc2)cc1-c1cccc2ccccc12 [Compound 2g]",
    "category": "t"
  },
  {
    "compound": "CC(=O)n1nc(-c2ccccc2)cc1-c1cccc(Oc2ccccc2)c1 [Compound 2h]",
    "category": "f"
  },
  {
    "compound": "Brc1ccc(COc2ccc(C3CC(c4ccccc4)=NN3)cc2)cc1 (stereo not drawn) [Compound 2d]",
    "category": "f"
  },
  {
    "compound": "Clc1ccc(C2=NNC(c3ccc4[nH]ccc4c3)C2)cc1 (stereo not drawn) [Compound 2b]",
    "category": "f"
  }
]

Consider now this further compound.
Task: Is RM (±SD) of CC(=O)n1nc(-c2ccccc2)cc1-c1ccc2[nH]ccc2c1 [Compound 2f] strictly below 0.2?
Output: t

====

# protocol_text: Reducing activity of the stable radical DPPH
# Assay type: biochemical
# condition_description: 200 µM, 60 min
// Criterion not met strictly below 40% in RA% 200 µM 60 min; Criterion met otherwise

[
  {
    "compound": "CC(=O)n1nc(-c2ccccc2)cc1-c1ccc2[nH]ccc2c1 [Compound 2f]",
    "category": "Criterion met"
  },
  {
    "compound": "CC(=O)n1nc(-c2ccccc2)cc1-c1cccc(Oc2ccccc2)c1 [Compound 2h]",
    "category": "Criterion not met"
  },
  {
    "compound": "CC(Cc1ccc(O)c(O)c1)C(C)Cc1ccc(O)c(O)c1 (stereo not shown) [NDGA, Nordihydroguaretic acid, reference compound]",
    "category": "Criterion met"
  },
  {
    "compound": "Clc1ccc(C2=NNC(c3ccc4[nH]ccc4c3)C2)cc1 (stereo not shown) [Compound 2b]",
    "category": "Criterion met"
  },
  {
    "compound": "c1ccc(C2=NNC(c3cccc4ccccc34)C2)cc1 (stereo not shown) [Compound 2a]",
    "category": "Criterion met"
  }
]

Task: Please tell me: is the compound CC(=O)n1nc(-c2ccc(Cl)cc2)cc1-c1cccc2ccccc12 [Compound 2g] at or over 40% in terms of RA% 200 µM 60 min?
Output: Criterion not met

Task: Please tell me: is the compound Brc1ccc(COc2ccc(C3CC(c4ccccc4)=NN3)cc2)cc1 (stereo not shown) [Compound 2d] at or over 40% in terms of RA% 200 µM 60 min?
Output: Criterion not met

====

# protocol_text: Reducing activity of the stable radical DPPH
# Format: biochemical
# condition_description: 50 µM, 60 min
measure_name: RA% 50 µM 60 min (%)
Supply the numeric figure in %, leaving out any unit text.

[
  {
    "molecule": "CC(=O)n1nc(-c2ccccc2)cc1-c1cccc(Oc2ccccc2)c1",
    "RA% 50 µM 60 min (%)": 9.5
  },
  {
    "molecule": "CC(=O)n1nc(-c2ccc(Cl)cc2)cc1-c1cccc2ccccc12",
    "RA% 50 µM 60 min (%)": 12.7
  },
  {
    "molecule": "Brc1ccc(COc2ccc(C3CC(c4ccccc4)=NN3)cc2)cc1 (stereo not shown)",
    "RA% 50 µM 60 min (%)": 9.5
  }
]

Input c1ccc(C2=NNC(c3cccc4ccccc34)C2)cc1 (stereo not shown) . Output RA% 50 µM 60 min: 20.0

====

# Tested on: carrageenin-induced rat paw edema
# protocol_text: Inhibition of the carrageenin-induced rat paw edema
# Format: in vivo, Fisher 344 rats
# condition_description: intraperitoneal administration
measure_name: anti-inflammatory activity in carrageenin-induced rat paw edema (in words)

[
  {
    "compound": "CC(=O)n1nc(-c2ccccc2)cc1-c1ccc2[nH]ccc2c1",
    "obs_value": "medium activity"
  },
  {
    "compound": "CC(=O)n1nc(-c2ccc(Cl)cc2)cc1-c1cccc2ccccc12",
    "obs_value": "medium activity"
  },
  {
    "compound": "Clc1ccc(C2=NNC(c3ccc4[nH]ccc4c3)C2)cc1 (stereo not drawn)",
    "obs_value": "medium activity"
  }
]

====

# protocol_text: Inhibition of linoleic acid lipid peroxidation (AAPH)
# Format: biochemical
Attribute: AAPH% 100 µM (anti-lipid peroxidation)
Put down the number, then write its unit next to it.

Field: example entries. Status: answers known.
[
  {
    "compound": "CC(=O)n1nc(-c2ccccc2)cc1-c1cccc(Oc2ccccc2)c1 [Compound 2h]",
    "AAPH% 100 µM (anti-lipid peroxidation)": "97%"
  },
  {
    "compound": "CC(=O)n1nc(-c2ccc(Cl)cc2)cc1-c1cccc2ccccc12 [Compound 2g]",
    "AAPH% 100 µM (anti-lipid peroxidation)": "100%"
  },
  {
    "compound": "Cc1c(C)c2c(c(C)c1O)CCC(C)(C(=O)O)O2 (stereo not shown) [Trolox, reference compound]",
    "AAPH% 100 µM (anti-lipid peroxidation)": "93%"
  },
  {
    "compound": "Brc1ccc(COc2ccc(C3CC(c4ccccc4)=NN3)cc2)cc1 (stereo not shown) [Compound 2d]",
    "AAPH% 100 µM (anti-lipid peroxidation)": "96%"
  },
  {
    "compound": "CC(=O)n1nc(-c2ccccc2)cc1-c1ccc2[nH]ccc2c1 [Compound 2f]",
    "AAPH% 100 µM (anti-lipid peroxidation)": "95%"
  },
  {
    "compound": "c1ccc(C2=NNC(c3cccc4ccccc34)C2)cc1 (stereo not shown) [Compound 2a]",
    "AAPH% 100 µM (anti-lipid peroxidation)": "89%"
  }
]

Alright, here's another compound for you.
Input Clc1ccc(C2=NNC(c3ccc4[nH]ccc4c3)C2)cc1 (stereo not shown) [Compound 2b] . Output AAPH% 100 µM (anti-lipid peroxidation): 78%
